- target_desc: GABA-A receptor; anion channel
- assay_overview: GPCRScan assay: inhibition of GABAA/BZP
- Assay type: protein-complex assay, Rattus norvegicus
- Design: radioligand conc. used [nm] 0.6 – 4.0, parental cells brain tissue
observed_property: Ki (nM)

P: CCNC(=O)c1cc2c(N3CCOC[C@@H]3C)ccnc2[nH]1
Q: CCNC(=O)c1cc2c(N3CCOC[C@@H]3C)ccnc2n1C
# input Lowest Ki? choose P or Q Response format: the label of the selected entry.
# output Q

====

- target_desc: D(4) dopamine receptor (Homo sapiens)
- Sequence (P21917 whole entry): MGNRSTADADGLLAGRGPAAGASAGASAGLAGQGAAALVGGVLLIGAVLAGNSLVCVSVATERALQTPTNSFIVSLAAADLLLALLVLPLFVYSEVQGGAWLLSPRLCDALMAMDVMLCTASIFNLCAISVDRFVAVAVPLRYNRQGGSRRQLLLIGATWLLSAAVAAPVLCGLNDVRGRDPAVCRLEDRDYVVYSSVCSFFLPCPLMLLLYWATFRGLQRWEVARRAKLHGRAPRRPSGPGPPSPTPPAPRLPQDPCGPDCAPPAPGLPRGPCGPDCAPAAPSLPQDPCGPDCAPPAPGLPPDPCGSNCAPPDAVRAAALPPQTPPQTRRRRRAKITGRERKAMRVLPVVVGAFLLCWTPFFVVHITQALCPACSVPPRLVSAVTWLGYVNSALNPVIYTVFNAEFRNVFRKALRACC
- assay_overview: GPCRScan assay: inhibition of D4
- Set-up: radioligand conc. used [nm] 0.6 – 1.7, parental cells Stable HEK
- condition_description: read-out: Ki
observed_property: pKi
Kindly note that pKi refers to -log10 of the concentration in mol/L and answer with the value alone.

# input Given the compound `CCNC(=O)c1cc2c(N3CCOC[C@@H]3C)ccnc2n1C` , what is its reported pKi?
# output 6.13
